Recorded values, source PubChem BioAssay AID1851.

target: Cytochrome P450 2C19 (Homo sapiens); experiment: Cytochrome panel assay with activity outcomes; conditions: recombinant CYP, pro-luciferin dealkylation, luminescence, p450-cyp2c19; series mostly up to 57.1 µM
Among all 16,000 compounds or so, about 5,800 (36%) were called active. Roughly 23% stayed inconclusive and do not appear here. Calls follow the shape of the dose curve; as a rule, active = well fitted curve in the direction sought with a large enough effect; inconclusive = small, poorly fitted or top-dose-only effect, or effect the other way; inactive = no such curve, though single readings can be large or run the other way. The list shows a part of the results.
Choose one outcome from this list and give only that: yes (1) = active, no (0) = inactive

Record excerpt, results attached:
{"columns": ["Molecule", "Assigned Label"],
 "data": [
  ["COCCn1c(=S)[nH]c2cc(C(=O)NC(C)C)ccc2c1=O", "yes (1)"],
  ["Cc1n[nH]c(C)c1S(=O)(=O)N1CCOCC1", "no (0)"],
  ["CC(=O)Nc1ccc(NC(=O)CSc2ncnn2-c2ccccc2)cc1", "yes (1)"],
  ["COc1ccc2c(c1)CCc1c(C(=O)N3CCCCCC3)noc1-2", "yes (1)"],
  ["COc1ccc(C(=O)NNC(=O)Cc2ccc(-c3ccccc3)cc2)cc1OC", "no (0)"]
]}

// query Hello, I am checking results. What call was entered for `COC(=O)Cn1c(=O)c2c(nc(Br)n2Cc2ccccc2Cl)n(C)c1=O` ?
// result yes (1)

// query Identify the outcome logged in this assay for the molecule shown: `c1ccc(Nc2ncnc3ccc(-c4ccoc4)cc23)cc1`
// result yes (1)

// query I'd appreciate the recorded outcome for `COc1ncc2nc(-c3ccc(F)cc3)c(=O)n(CCc3ccccc3)c2n1` from this test.
// result no (0)

// query Test call, this molecule: `CCN(CC)CCc1nc(-c2ccccc2)no1`
// result no (0)

// query Dear colleague, could you share the recorded outcome for `COCCN(C(=O)c1ccco1)c1nnc(-c2ccc(OC)cc2)s1` when you have a moment?
// result yes (1)

// query I would be grateful if you could indicate the recorded call for `COc1ccc(-c2noc(CCCC(=O)NCCc3ccccc3)n2)cc1OC` .
// result yes (1)

---

molecular target: Cytochrome P450 2C19 (Homo sapiens); test: Cytochrome panel assay with activity outcomes; details: recombinant CYP, pro-luciferin dealkylation, luminescence, p450-cyp2c19; series mostly up to 57.1 µM
Among all 16,000 compounds or so, about 5,800 (36%) were called active. Not shown: some 23% with an inconclusive outcome. The call rests on the fitted dose curve; in most records, active means well fitted curve in the direction sought with a large enough effect; inconclusive means small, poorly fitted or top-dose-only effect, or effect the other way; inactive means no such curve, though single readings can be large or run the other way. The list shows a part of the results.
Answer with one of the outcomes given here: true for active, false for inactive

{"columns": ["Compound", "Assigned Label"],
 "data": [
  ["CCC1(C)Cc2c(sc3nnn(CC(=O)Nc4ccc(C)cc4)c(=O)c23)CO1 (stereo unspecified)", "true"]
]}

// query GET /call?item= `COc1ccc([C@@H]2CC(=O)c3c(O)cc(O[C@H]4O[C@@H](CO[C@H]5O[C@@H](C)[C@@H](O)[C@@H](O)[C@@H]5O)[C@@H](O)[C@@H](O)[C@@H]4O)cc3O2)cc1O` returns the recorded outcome of this test.
// result false

// query Could you check what this test reported for `CN(C)c1ccc(-c2nc(Nc3ccncc3)c3ccccc3n2)cc1` ?
// result true

// query Call for entry `COc1ccccc1/C=C/C(=O)c1ccc(Cl)cc1` :
// result true

// query State the result this test recorded for Cc1ccc(S(=O)(=O)N2CCN(C(=O)c3ccccc3)C2C(C)C)cc1 (stereo unspecified) .
// result true

// query Could you kindly confirm the outcome this assay logged for `CCO/C([O-])=N/c1c[n+](N2CCOCC2)no1` ?
// result false

---

target: Cytochrome P450 2C19 (Homo sapiens); experiment: Cytochrome panel assay with activity outcomes; details: recombinant CYP, pro-luciferin dealkylation, luminescence, p450-cyp2c19; series mostly up to 57.1 µM
Out of some 16,000 compounds screened, about 5,800 (36%) were called active. About 23% were inconclusive and are not listed. The call rests on the fitted dose curve; in most records, active means well fitted curve in the direction sought with a large enough effect; inconclusive means small, poorly fitted or top-dose-only effect, or effect the other way; inactive means no such curve, though single readings can be large or run the other way. This is one part of the list.
Output constraint: value belongs to class 1 = active, class 0 = inactive

{"columns": ["Compound", "Assigned Label"],
 "data": [
  ["CCO[C@H](c1cc(OC)cc([N+](=O)[O-])c1OC)[C@H](C)/C=C\\CC(=O)OC", "class 1"],
  ["NC[C@@H]1O[C@H](O[C@@H]2[C@H](O[C@@H]3O[C@H](CO)[C@@H](COC[C@H]4O[C@@H](CN)[C@@H](O)[C@@H](O)[C@@H]4N)[C@@H]3O)[C@@H](O)[C@@H](N)C[C@H]2N)[C@@H](N)[C@H](O)[C@@H]1O", "class 0"],
  ["Cc1c(NC(=S)/C=C2\\N(C)c3ccccc3C2(C)C)c(=O)n(-c2ccccc2)n1C", "class 1"],
  ["Fc1cccc(/C=N\\N=C/c2cccc(F)c2)c1", "class 0"],
  ["Cc1nn(CC(O)COc2ccc3c(c2)CCC3)c(C)c1Br (stereo not given)", "class 1"],
  ["CC(C)NC(=O)N1CC[C@@]2(CCCN(C(=O)c3cc(C(F)(F)F)cc(C(F)(F)F)c3)C2)C1", "class 0"],
  ["Cc1c(NC(=S)N/N=C/c2ccc(O)cc2)c(=O)n(-c2ccccc2)n1C", "class 0"],
  ["Cc1ccc(/C=C/C(=O)NC(=S)Nc2ccccc2C(=O)NC2CCCCC2)cc1", "class 1"],
  ["Nc1ncnc2c1c(-c1ccc(Oc3ccccc3)cc1)cn2C1CCCC1", "class 1"],
  ["COC(=O)C1=C(C)Nc2ncnn2C1c1cccnc1 (stereo not given)", "class 0"]
]}

Next, consider the following compound.
// query What classification did `NC(=S)NCCC[C@@H](N)C(=O)O` end up with in this test?
// result class 0

---

target: Cytochrome P450 2C19 (Homo sapiens) (UniProt P33261); experiment: Cytochrome panel assay with activity outcomes; conditions: recombinant CYP, pro-luciferin dealkylation, luminescence, p450-cyp2c19; series mostly up to 57.1 µM
Sequence (P33261 whole entry, looked up): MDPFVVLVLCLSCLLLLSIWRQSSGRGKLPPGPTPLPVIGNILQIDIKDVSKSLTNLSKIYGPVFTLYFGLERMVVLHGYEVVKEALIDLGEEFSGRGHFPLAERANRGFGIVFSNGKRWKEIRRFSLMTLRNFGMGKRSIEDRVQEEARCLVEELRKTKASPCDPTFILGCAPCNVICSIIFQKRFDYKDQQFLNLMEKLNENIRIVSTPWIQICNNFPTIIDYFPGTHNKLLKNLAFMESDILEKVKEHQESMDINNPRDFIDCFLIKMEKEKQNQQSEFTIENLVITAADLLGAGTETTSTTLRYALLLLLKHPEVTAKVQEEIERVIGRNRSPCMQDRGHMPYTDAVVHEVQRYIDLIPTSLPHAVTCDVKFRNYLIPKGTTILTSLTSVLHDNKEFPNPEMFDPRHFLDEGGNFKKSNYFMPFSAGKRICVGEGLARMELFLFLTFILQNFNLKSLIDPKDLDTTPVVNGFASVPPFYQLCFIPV
Among all 16,000 compounds or so, about 5,800 (36%) were called active. Inconclusive results (about 23%) are left out. This is one part of the list.

{"columns": ["Chemical Structure", "AC50"],
 "data": [
  ["CCOC(=O)c1cc(-c2ccccc2)sc1NC(=O)c1ccc(OC)cc1", "7.94 µM (active)"],
  ["CN(c1ccc(C(=O)NCc2ccccn2)cc1)S(C)(=O)=O", "inactive"],
  ["Cc1nc2cnc(N3CCNCC3)nc2n(-c2ccccc2)c1=O", "inactive"],
  ["FC(F)(F)c1nc(-c2ccncc2)ncc1-c1nnnn1-c1ccccc1", "0.0224 µM (active)"]
]}

---

biological target: Cytochrome P450 2C19 (Homo sapiens) (UniProt P33261); experiment: Cytochrome panel assay with activity outcomes; settings: recombinant CYP, pro-luciferin dealkylation, luminescence, p450-cyp2c19; series mostly up to 57.1 µM
Screen size: about 16,000 compounds; about 5,800 (36%) were called active. About 23% were inconclusive and are not listed. The call rests on the fitted dose curve; in most records, active means well fitted curve in the direction sought with a large enough effect; inconclusive means small, poorly fitted or top-dose-only effect, or effect the other way; inactive means no such curve, though single readings can be large or run the other way. The list shows a part of the results.
Answer with one of the outcomes given here: active, inactive

Use the examples below as a reference point.
{"columns": ["Compound", "Assigned Label"],
 "data": [
  ["C=CC(C)(C)c1[nH]c2ccccc2c1C1=C(O)C(=O)C(c2c[nH]c3c(CC=C(C)C)cccc23)=C(O)C1=O", "active"],
  ["O=S(=O)(c1ccc(F)cc1)N1CC2CCCN2c2ccc(C(F)(F)F)cc21 (centres undefined)", "active"],
  ["Nc1nonc1-c1noc(CCCN2C(=O)c3ccccc3C2=O)n1", "active"],
  ["COC(=O)c1scc(C)c1NC(=O)Cc1ccccc1", "active"],
  ["CCc1cc2c(=O)c(-c3cnn(-c4ccccc4)c3)coc2c(CN2CCOCC2)c1O", "active"]
]}

// query Test call for this compound, please: `CN1CCN(CCCNC(=O)c2ccc(CSCc3cccc(Cl)c3)o2)CC1`
// result inactive

// query Just curious, what result did `CCCCC(=O)Nc1sc2c(c1C(=O)OCC)CCC(C=O)=C2Cl` get here?
// result active

// query What was the test verdict on CCCC(=O)Nc1nc2n(n1)C(c1ccccc1)CC(=O)N2 (centres undefined) ?
// result inactive

// query For `C#CCSc1nncn1C(=O)/C=C/c1ccccc1` , what call appears in the results of this test?
// result active

---

molecular target: Cytochrome P450 2C19 (Homo sapiens) (UniProt P33261); assay: Cytochrome panel assay with activity outcomes; settings: recombinant CYP, pro-luciferin dealkylation, luminescence, p450-cyp2c19; series mostly up to 57.1 µM
About 5,800 (36%) of roughly 16,000 compounds were called active. About 23% were inconclusive and are not listed. The call rests on the fitted dose curve; in most records, active means well fitted curve in the direction sought with a large enough effect; inconclusive means small, poorly fitted or top-dose-only effect, or effect the other way; inactive means no such curve, though single readings can be large or run the other way. This is one part of the list.
Please reply with one of these outcomes: true (active), false (inactive)

Reference set (4 entries):
{"columns": ["Molecule", "Assigned Label"],
 "data": [
  ["CNC(=S)NNC(=O)c1sccc1OCc1ccc(C)cc1", "true"],
  ["CS(=O)(=O)N1CCC[C@@]2(CCN(c3ccccc3)C2)C1", "true"],
  ["CS(=O)(=O)N1CCC[C@@]2(CCN(c3ncccn3)C2)C1", "false"],
  ["Cc1nn(C(C)C(=O)N2CCc3ccccc32)c(C)c1[N+](=O)[O-] (stereo not drawn)", "true"]
]}

// query // return assay outcome for `CC1=CC(=O)c2ccccc2C1=O`
// result true

// query Kindly provide the recorded test outcome for the following molecule: `CCOC(=O)c1[nH]c(COC(=O)CCOc2ccccc2OC)c(C(=O)OCC)c1C`
// result true

// query Query: recorded result category for `Cc1ccccc1NC(=O)CSc1nnc(-c2ccccc2)n1-c1ccccc1` in this test
// result true

// query Call for entry `COc1ccc(COc2ccsc2C(=O)Nc2ccc(Cl)c(Cl)c2)cc1` :
// result true

// query For `CN(C)CC[C@H](c1ccc(Br)cc1)c1ccccn1` , which call appears in the assay record?
// result false
